The values you see were collected from PubChem BioAssay AID1159580.

experiment: chemical genetic growth profiling, strain panel (AID 1159580);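 note: tested at 20 µM; growth read once vehicle control cultures reached saturation at 30 °C; 1 = growth at the plate median or of vehicle wells; lower values mean less growth of the strain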; settings: S. cerevisiae deletion strains, growth OD, locus YGL248W, strain PDE1
The whole screen tested about 5,500 compounds, of which about 2,000 (36%) were called active. Roughly 18% stayed inconclusive and do not appear here. Cut-off read from the data, not from the text of the source: active = normalized growth mostly below about 0.91 (no sharp cut-off); inconclusive = no clear call, values can overlap the other calls; inactive = mostly above about 0.92. This is one part of the list.
// classify into TRUE (active), FALSE (inactive)

Examples from the recorded data:
compound	assignedCategory
O[N+]1=CC=CCC1=S.On1ccccc1=S.[Zn]	TRUE
C/C=C/c1ccc2c(c1)OCO2	FALSE
Nc1nc2ncc(C(=O)O)nc2c(=O)[nH]1	FALSE
CC1(C)C(=O)C=CC2(C)C3CCC4(C)C(c5ccoc5)CC5OC54C3C(O)CC12 (configuration not stated)	FALSE
NCC(CC(=O)O)c1ccc(Cl)s1 (configuration not stated)	FALSE

What was the test verdict on CC(=O)O[C@@H]1C[C@@]2(C)[C@H](c3ccoc3)C[C@H]3O[C@]32[C@]2(C)C(=O)C(O)=C3C(C)(C)C(=O)C=C[C@]3(C)C12 (some centres not stated) ? FALSE

What was the test verdict on C=CC(C1=CC(=O)C(OC)=CC1=O)c1ccc(O)cc1 (configuration not stated) ? FALSE

* * *

assay: chemical genetic growth profiling, strain panel (AID 1159580);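 note: tested at 20 µM; growth read once vehicle control cultures reached saturation at 30 °C; 1 = growth at the plate median or of vehicle wells; lower values mean less growth of the strain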; conditions: S. cerevisiae deletion strains, growth OD, locus YJL095W, strain BCK1
In all, about 5,500 compounds went through this assay and about 2,000 (36%) were called active. Not shown: some 18% with an inconclusive outcome. No stated cut-off is given here; in the data, active means normalized growth mostly below about 0.91 (no sharp cut-off); inconclusive means no clear call, values can overlap the other calls; inactive means mostly above about 0.92. The list shows a part of the results.
// classify into Yes = active, No = inactive

What was the test verdict on CC(Cc1ccc(O)c(O)c1)C(C)Cc1ccc(O)c(O)c1 (stereo unspecified) ? Yes

What was the test verdict on "c1ccc2c3c([nH]c2c1)CNCC3" ? No

What was the test verdict on CC(C)(C)c1ccc(C(O)CCCN2CCC(C(O)(c3ccccc3)c3ccccc3)CC2)cc1 (stereo unspecified) ? No

What was the test verdict on "CN(C)CCOc1ccc(/C(=C(/CCCl)c2ccccc2)c2ccccc2)cc1" ? Yes

What was the test verdict on "C/C(=C\c1ccc2c(c1)OCO2)[N+](=O)[O-]" ? Yes

What was the test verdict on "O=[N+]([O-])/C=C/c1ccc(F)cc1" ? Yes

* * *

experiment: chemical genetic growth profiling, strain panel (AID 1159580);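 note: tested at 20 µM; growth read once vehicle control cultures reached saturation at 30 °C; 1 = growth at the plate median or of vehicle wells; lower values mean less growth of the strain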; conditions: S. cerevisiae deletion strains, growth OD, locus YKL190W, strain CNB1, hits give low values
About 2,000 (36%) of roughly 5,500 compounds were called active. Inconclusive results (about 18%) are left out. This is one part of the list.
measuredEndpoint: normalized growth
I'd appreciate a reply containing only the number, no unit.

Illustrative cases are given below, each with its answer.
compound	measuredEndpoint	numericReadout
COc1cccc(C2C3=C(CC(C)(C)CC3=O)OC3=C2C(=O)CC(C)(C)C3)c1O	normalized growth	0.988
CC(C)N(Cc1ccc(N(C)C)cc1)S(=O)(=O)c1cc(Cl)c(Cl)cc1Cl	normalized growth	1.01
Nc1ccc(C(=O)NCC(=O)O)cc1	normalized growth	1
CC(C)N(C(=O)SCC(Cl)=C(Cl)Cl)C(C)C	normalized growth	1.04
COc1c2c(cc3c1OCO3)CCN(C)C2	normalized growth	1.01
COc1cc(OC)c2c(=O)c(-c3ccccc3)c(C)oc2c1OC	normalized growth	1.01
CCCC1O[C@@H]2CC3C4CCC5=CC(=O)C=CC5(C)C4[C@@H](O)CC3(C)[C@]2(C(=O)CO)O1 (stereo partly specified)	normalized growth	0.995
O=C(CCCCCCCCCCCCC1CCCC1)Nc1ccc(S(=O)(=O)c2ccc(NC(=O)CCCCCCCCCCCCC3CCCC3)cc2)cc1	normalized growth	1.02
O=C1OC2COC(=O)C2C=C1NC(=O)c1ccc(Cl)cc1 (stereo unspecified)	normalized growth	0.913
Nc1ccccc1SCC(=O)Nc1c(F)cccc1F	normalized growth	1.01

# lookup: normalized growth of CC(=O)O[C@@H]1CC2C(C)(C)C(=O)CC[C@]2(C)C2CC[C@]3(C)C(=CC(=O)O[C@H]3c3ccoc3)[C@@]21C (stereo partly specified) 0.983

# lookup: normalized growth of "CC(=O)Nc1cc([N+](=O)[O-])ccc1-n1cc(C)c(C(F)(F)F)n1" 0.992

# lookup: normalized growth of "O=[N+]([O-])c1ccc(O)c([N+](=O)[O-])c1" 0.795

# lookup: normalized growth of CC1C(c2ccccc2)OCCN1CN1C(=O)c2ccccc2C1=O (stereo unspecified) 0.987

# lookup: normalized growth of "CN1C2CCC1CC(=NO)C2" 0.994

# lookup: normalized growth of "CC(=O)c1sc(SCc2ccc(Cl)cc2)c2c1CC(C)(C)CC2=O" 0.966
